Test system: WPMY1-GM130-SQSTM1
method_description: lowest phenotypically active concentration; higher = less potent
condition_details: treatment time: 24 h
assay_metric: lowest phenotypically active concentration

Exercise: Please look up its lowest phenotypically active concentration: CNCC(O)c1ccc(OC(=O)C(C)(C)C)c(OC(=O)C(C)(C)C)c1 (centres undefined)
Solution: 9 µM

Exercise: Please look up its lowest phenotypically active concentration: CCSc1ccc2c(c1)N(CCCN1CCN(C)CC1)c1ccccc1S2
Solution: 9 µM

====

Measured phenotypically active, listed per entry.
Test system: A549-GM130-SQSTM1
method_description: phenotypically active (imaging signature differs from DMSO and reproducible) at any of 0.3-9 uM (binary (1 = active, 0 = inactive)); higher = active
condition_details: treatment time: 24 h
Structures can show the parent of a compound that is named as a salt.
I only need the number, thanks.

Here is how some compounds turned out for phenotypically active.
compound | recorded_value
C#C[C@]1(O)CC[C@H]2[C@@H]3CCC4=CCCC[C@@H]4[C@H]3C(=C)C[C@@]21CC [desogestrel] | 0
O=c1[nH]cnc2c1ncn2[C@H]1CC[C@@H](CO)O1 [Didanosine] | 0
Cn1c(=O)c2nc[nH]c2n(C)c1=O [theophylline] | 1
COc1ccccc1OCCNCC(O)COc1cccc2[nH]c3ccccc3c12 (configuration not stated) [Carvedilol] | 1
CC[C@H](C)C(=O)O[C@H]1C[C@H](O)C=C2C=C[C@H](C)[C@H](CC[C@@H](O)C[C@@H](O)CC(=O)O)[C@H]21 [pravastatin] | 0

Exercise: Please look up its phenotypically active: CC(C)OC(=O)c1cc2c(OCC(O)CNC(C)(C)C)cccc2[nH]1 (configuration not stated)
Solution: 1

Exercise: Please look up its phenotypically active: CC(C)(N)c1cc(C(=O)N[C@@H]2CCc3ccc(OC4=C5CCC(=O)N=C5NC=C4)cc3C2)cc(C(F)(F)F)c1 [ML 786 dihydrochloride]
Solution: 1

Exercise: Please look up its phenotypically active: Cc1cc(C(=O)Nc2cccc(C(=O)Nc3cccc(C(F)(F)F)c3)c2)on1
Solution: 0

Exercise: Please look up its phenotypically active: Cc1cc(F)c(Nc2ncnc3cc(OCc4ccccc4)ccc23)cc1O
Solution: 1
